B1: Mineralocorticoid receptor, residues 600 to 675; numbered along this chain, P08235 (parent)
chain: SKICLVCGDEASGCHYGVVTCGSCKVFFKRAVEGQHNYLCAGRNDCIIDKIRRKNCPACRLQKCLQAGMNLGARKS

- Variants of: B1
- experiment-description: abundance fitness (aPCA) (normalised: wild type 0, dead -1); higher = more abundant; growth selection in yeast, the domain comes from the species named
- measurement-parameters: Homo sapiens
In this section, each of the variants is paired with its reported abundance fitness.

L65A    -0.05
K29S    -0.04
L65Q    0.018
V6R    -0.971
A41V    -0.053

Endpoint output: abundance fitness of `A41H` . Value?
-0.033

Endpoint output: abundance fitness of `R52D` . Value?
-0.072

Endpoint output: abundance fitness of `C46F` . Value?
-0.653

Endpoint output: abundance fitness of `N44E` . Value?
-0.042

Endpoint output: abundance fitness of `H36I` . Value?
-0.022

Endpoint output: abundance fitness of `I51E` . Value?
-0.048

Endpoint output: abundance fitness of `V18W` . Value?
-0.457

Endpoint output: abundance fitness of `E10W` . Value?
-0.012
